Assay: Validation screen for inhibitors of Lassa infection (AID 463096); also: % is scaled to controls: 0 for no effect and ±100 for the full control effect
Details: Lassa virus infection, cell-based; series mostly up to 46.1 µM
Results filed as inconclusive are left out. Activity calls are given as the source filed them. Calls follow the shape of the full dose curve.

Compound | outcome
N#CC(Cc1ccc(O)c(O)c1)C(=O)N1CCc2ccccc21 (stereo not drawn) | inactive
Cc1ccccc1N1CCN(S(=O)(=O)C[C@]23CCC(CC2NC(=O)[C@@H](N)CCS(C)(=O)=O)C3(C)C)CC1 (stereo partly drawn) | inactive
Nc1nc(Cl)nc2c1ncn2[C@@H]1O[C@H](CO)[C@H](O)[C@H]1O | inactive

---

Test system: CP217
Experiment: qHTS profiling for inhibitors of Plasmodium falciparum proliferation (AID 504749); also: nearly all actives have a fitted effect of over 60% in size
Details: P. falciparum in erythrocytes, SYBR Green DNA, 72 h; series mostly up to 28.7 µM
Results filed as inconclusive are left out. Activity calls are given as the source filed them. Calls follow the shape of the dose curve; as a rule, active = well fitted inhibition curve with a large enough effect; inconclusive = small, poorly fitted or top-dose-only effect; inactive = flat fitted curve, though single readings scatter.
Outcomes: 1 for active, -1 for inactive

Compound | Measurement Target | Assigned Category
CCCC(C)C1(CC)C(=O)NC(=S)NC1=O (configuration not stated) | CP217 | -1
CN(C)[C@H]1C(=O)C(C(N)=O)=C(O)[C@]2(O)C(=O)C3=C(O)c4c(O)cccc4[C@@](C)(O)[C@H]3C[C@@H]12 | CP217 | -1
C#C[C@]1(O)CC[C@H]2[C@@H]3CCC4=CC(=O)CCC4(C)[C@H]3CCC21C (some centres not stated) | CP217 | -1
CC1(C)S[C@@H]2[C@H](N)C(=O)N2C1C(=O)O (some centres not stated) | CP217 | -1
COC(C(=O)C(O)C(C)O)C1Cc2cc3cc(OC4CC(OC5CC(O)C(OC)C(C)O5)C(OC(C)=O)C(C)O4)c(C)c(O)c3c(O)c2C(=O)C1OC1CC(OC2CC(OC3CC(C)(O)C(OC(C)=O)C(C)O3)C(O)C(C)O2)C(O)C(C)O1 (configuration not stated) | CP217 | 1
CN(C)[C@@H](Cc1ccccc1)c1ccccc1 | CP217 | -1
OCC(O)[C@H]1O[C@@H]2O[C@H](C(Cl)(Cl)Cl)O[C@@H]2[C@H]1O (some centres not stated) | CP217 | -1
CC12CCC3C4CCC(=O)C(O)=C4CCC3C1CCC2OC(=O)CCC1CCCC1 (configuration not stated) | CP217 | -1
CCCCCc1cc(O)c2c(c1)OC(C)(C)C1CC=C(C)CC21 (configuration not stated) | CP217 | 1
COC(=O)C1C(OC(=O)c2ccccc2)CC2CCC1N2C (configuration not stated) | CP217 | -1
CCCN1CCCC2Cc3nc(N)ncc3CC21 (configuration not stated) | CP217 | -1
CC1(C)[C@@H](C=C(Cl)Cl)[C@@H]1C(=O)OCc1c(F)c(F)cc(F)c1F | CP217 | -1

---

Assay: Cell Viability - LYMP2-018 (AID 985);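 also: compound exposure lasted 24 hr at 37 °C; nearly all actives have a fitted effect of over 50% in size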
Conditions: LYMP2-018 lymphoblastoid cells, viability (qHTS); series mostly up to 92.2 µM
Results filed as inconclusive are left out. Activity calls are given as the source filed them. Calls follow the shape of the dose curve; as a rule, active = well fitted cell-killing curve with a large enough effect; inconclusive = small, poorly fitted or top-dose-only effect; inactive = flat fitted curve, though single readings scatter.
Labels: active, inactive

Compound | Assigned Category
O=Nc1ccc(Nc2ccccc2)cc1 | active
CN(C)c1ccc(N=O)cc1 | active
FC(F)(F)c1ccc(Cl)cc1 | inactive
c1ccc2cc3c(cc2c1)-c1cccc2cccc-3c12 | inactive
O=C(CCl)c1ccccc1 | active
O=C(O)C1C(C(=O)O)C2(Cl)C(Cl)=C(Cl)C1(Cl)C2(Cl)Cl (stereo not given) | inactive
O=C1C2(Cl)C3(Cl)C4(Cl)C(Cl)(Cl)C5(Cl)C3(Cl)C1(Cl)C5(Cl)C24Cl (stereo not given) | active
C=CC(=O)OCC(CO)(COC(=O)C=C)COC(=O)C=C | active
CC(=O)[O-].CC(=O)[O-].O.O.[Cd+2] | inactive
N#CC(Cl)Cl | active

---

Assay: Cellular Toxicity (caspase-3) Renal Proximal Tubule (AID 667);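 also: cells exposed to compound for 16 hours at 37 °C before detection; 0% = DMSO basal and 100% = 10 µM staurosporine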
Conditions: renal proximal tubule cells; at 91.7 µM (top of the series) unless noted
Calls of active or inactive are those of the source. Calls come from the whole dose curve; as a rule, active = well fitted activation curve with a large enough effect; inconclusive = small, poorly fitted or top-dose-only effect, or effect the other way; inactive = flat fitted curve, though single readings scatter.
Outcomes: y for active, n for inactive

Compound Smiles | Assigned Category
Clc1ccc(C(c2ccc(Cl)cc2)C(Cl)Cl)cc1 | y
c1ccc2cc3c(cc2c1)-c1cccc2cccc-3c12 | n
C(=NC1CCCCC1)=NC1CCCCC1 | n
O=[N+]([O-])c1cc(C(F)(F)F)cc([N+](=O)[O-])c1Cl | n
OC(c1ccc(Cl)cc1)(c1ccc(Cl)cc1)C(Cl)(Cl)Cl | n

---

Test system: CP269
Test: qHTS profiling for inhibitors of Plasmodium falciparum proliferation (AID 504749); also: nearly all actives have a fitted effect of over 60% in size
Details: P. falciparum in erythrocytes, SYBR Green DNA, 72 h; series mostly up to 28.7 µM
Inconclusive results are not listed. Activity calls are given as the source filed them. Calls follow the shape of the dose curve; as a rule, active = well fitted inhibition curve with a large enough effect; inconclusive = small, poorly fitted or top-dose-only effect; inactive = flat fitted curve, though single readings scatter.
Outcomes: active, inactive

Compound | Measurement Target | Assigned Category
C=C1Nc2ccccc2C(=O)N1c1ccccc1C | CP269 | inactive
CCCC(C)C1(CC)C(=O)NC(=S)NC1=O (centres undefined) | CP269 | inactive
O=[N+]([O-])OC1CO[C@H]2C(O[N+](=O)[O-])COC12 (some centres undefined) | CP269 | inactive
[S]=[Sb][S][Sb]=[S] | CP269 | inactive
CC1OC(O[C@H]2C[C@@H](O)[C@]3(CO)[C@@H]4C(CC[C@]3(O)C2)[C@@]2(O)CC[C@H](C3=CC(=O)OC3)[C@@]2(C)C[C@H]4O)C(O)C(O)C1O (some centres undefined) | CP269 | inactive
COC(=O)C1C(OC(=O)c2ccccc2)CC2CCC1N2C (centres undefined) | CP269 | inactive
CCOC(=O)c1cncn1[C@@H](C)c1ccccc1 | CP269 | inactive
OC[C@@H](O)[C@H]1O[C@@H]2OC(C(Cl)(Cl)Cl)O[C@H]2[C@H]1O (some centres undefined) | CP269 | inactive
CCC/C=C/C=C/C(=O)OC1/C(=C/C(=O)OC)CC2CC(C(C)O)OC(=O)CC(O)CC3CC(OC(C)=O)C(C)(C)C(O)(CC4C/C(=C/C(=O)OC)CC(/C=C\C(C)(C)C1(O)O2)O4)O3 (centres undefined) | CP269 | active

---

Target: Cytochrome P450 1A2 (Homo sapiens) (UniProt P05177)
Sequence (P05177 whole entry, looked up): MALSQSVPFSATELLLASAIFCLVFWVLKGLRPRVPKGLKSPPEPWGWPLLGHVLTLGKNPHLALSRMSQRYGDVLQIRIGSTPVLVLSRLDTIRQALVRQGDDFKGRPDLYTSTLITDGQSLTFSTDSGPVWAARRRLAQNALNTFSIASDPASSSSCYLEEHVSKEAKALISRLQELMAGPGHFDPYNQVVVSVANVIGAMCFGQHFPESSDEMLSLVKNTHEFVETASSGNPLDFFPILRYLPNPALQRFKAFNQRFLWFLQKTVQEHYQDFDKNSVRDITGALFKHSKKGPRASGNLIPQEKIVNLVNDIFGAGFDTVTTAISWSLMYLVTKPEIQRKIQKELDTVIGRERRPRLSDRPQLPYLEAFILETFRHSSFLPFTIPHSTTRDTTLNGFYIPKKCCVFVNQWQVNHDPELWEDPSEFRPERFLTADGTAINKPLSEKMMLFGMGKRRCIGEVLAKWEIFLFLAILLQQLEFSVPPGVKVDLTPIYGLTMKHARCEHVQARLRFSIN
Assay: p450-cyp1a2 (AID 410); also: potency is read from the fitted curve at half-maximal effect
Settings: recombinant CYP1A2, luciferin-ME demethylation, luminescence; series mostly up to 57 µM
Inconclusive results are not listed. Active and inactive are the calls of the source. Calls follow the shape of the full dose curve.
Experimental Endpoint: Potency

Molecule | Measurement Target | Recorded Result
CC[C@H]1CN2CC[C@@H]1C[C@@H]2[C@H](O)c1ccnc2ccccc12 | Cytochrome P450 1A2 (Homo sapiens) (UniProt P05177) | inactive
CCCCCC[C@H]1C(=O)O[C@H](C)[C@H](NC(=O)c2cccc(NC=O)c2O)C(=O)O[C@@H](C)[C@H]1OC(=O)CC(C)C | Cytochrome P450 1A2 (Homo sapiens) (UniProt P05177) | inactive
C=C(CC1(C(C)NP(=O)(c2ccccc2)c2ccccc2)CC1)c1ccccc1 (centres undefined) | Cytochrome P450 1A2 (Homo sapiens) (UniProt P05177) | 15.8 µM (active)
CC[C@@]12CCCN3CC[C@@]4(c5ccc(OC)c(O)c5N(C(C)=O)[C@H]4CC1)[C@H]32 | Cytochrome P450 1A2 (Homo sapiens) (UniProt P05177) | inactive
C=C[C@@H]1CN2CC[C@@H]1C[C@H]2[C@H](O)c1ccnc2ccccc12 | Cytochrome P450 1A2 (Homo sapiens) (UniProt P05177) | inactive
CC(=O)N1C[C@@H]2C[C@H](C1)c1cccc(=O)n1C2 | Cytochrome P450 1A2 (Homo sapiens) (UniProt P05177) | inactive
CCN1C[C@]2(C)CC[C@@H](O)[C@]34[C@@H]5CC6[C@@H](OC)C[C@@](O)([C@H]5[C@@H]6O)[C@@H](C[C@@H]23)[C@H]14 | Cytochrome P450 1A2 (Homo sapiens) (UniProt P05177) | inactive
O=CN1C[C@H]2C[C@@H](C1)c1cccc(=O)n1C2 | Cytochrome P450 1A2 (Homo sapiens) (UniProt P05177) | inactive
COC(=O)C1(C)C=C2C(=C(C)C(=O)C2C)CN1 (centres undefined) | Cytochrome P450 1A2 (Homo sapiens) (UniProt P05177) | 31.6 µM (active)

---

Experiment: qHTS assay for environmental chemicals that activate the Aryl hydrocarbon Receptor (AhR) signaling pathway (AID 651777); also: % of control where 0% means no effect; nearly all actives have a fitted effect of over 15% in size
Conditions: 1A2-DRE human hepatoma cells, luciferase, 24 h; stronger effect = higher value
Inconclusive results are not listed.
Experimental Endpoint: activation (%)

Compound | Recorded Result
COc1ccc(O)c(C(C)(C)C)c1 | 3.77
CCCCC(C#N)(Cn1cncn1)c1ccc(Cl)cc1 (configuration not stated) | -0.211
Cc1[nH]c(=O)n(C(C)(C)C)c(=O)c1Cl | 0.775
CNC(=O)Oc1cccc(N=CN(C)C)c1 | 0.739
COC(=O)c1ccccc1S(=O)(=O)NC(=O)N(C)c1nc(C)nc(OC)n1 | 0.249
CC(C)CCCCCCOC(=O)c1ccccc1C(=O)OCCCCCCC(C)C | 1.61
CCOP(=O)(OCC)SCSC(C)(C)C | -0.964
Cc1ccc(-c2c(Cl)nc(C#N)n2S(=O)(=O)N(C)C)cc1 | 12.8
CCSCCSP(=O)(OC)OC | -0.526
CCOC(=O)C(Cl)Cc1cc(-n2nc(C)n(C(F)F)c2=O)c(F)cc1Cl (configuration not stated) | 1.53
O=Cc1cccc(Oc2ccccc2)c1 | -0.398
CC(C)C(=O)OCC(C)(C)C(OC(=O)C(C)C)C(C)C (configuration not stated) | 1.77
Cc1cc(Cl)ccc1OC(C)C(=O)O (configuration not stated) | 0.794
CC1CCCCC1NC(=O)Nc1ccccc1 (configuration not stated) | 6.72
CCC(C)(C)c1ccc(O)c(C(C)(C)CC)c1 | -1.01
COC(=O)/C=C(\C)OP(=O)(OC)OC | 0.265
O=[N+]([O-])c1ccc2ccc3cccc4ccc1c2c34 | 2.13
CCCCOC(=O)[C@@H](C)Oc1ccc(Oc2ccc(C#N)cc2F)cc1 | -2.2
CC1(C)Cc2cccc(O)c2O1 | 0.293
CNC(=O)Oc1cccc2c1OC(C)(C)C2O (configuration not stated) | 0.301
O=P(O)(O)CN(CP(=O)(O)O)CP(=O)(O)O | 0.682
CCOP(=S)(OCC)SC(CCl)N1C(=O)c2ccccc2C1=O (configuration not stated) | 0.999
O=[N+]([O-])C(Br)Br | 1.61
Brc1ccc(Br)cc1 | -0.254
CCOP(=O)(SC(C)CC)SC(C)CC (configuration not stated) | 0.937
CCCCN(CC)c1c([N+](=O)[O-])cc(C(F)(F)F)cc1[N+](=O)[O-] | -0.444
Cn1c(-c2ccccc2)cc(-c2ccccc2)[n+]1C | -2.45
COC(=O)c1ccccc1S(=O)(=O)NC(=O)Nc1nc(C)nc(OC)n1 | -1.13
CCC[CH2][Sn]([Cl])([CH2]CCC)[CH2]CCC | 8.68
CC(=O)[O-].CC(=O)[O-].O.O.[Cd+2] | 1.94
CC(C)(C)C(=O)[C@H](Oc1ccc(Cl)cc1)n1cncn1 | 3.75
C=CCOC(=O)C(C)(C)OC(=O)c1cc(-n2c(=O)cc(C(F)(F)F)n(C)c2=O)ccc1Cl | 1.35
COCc1cnc(C2=NC(C)(C(C)C)C(=O)N2)c(C(=O)O)c1 (configuration not stated) | 1.65
CC1=NNC(=O)N(/N=C/c2cccnc2)C1 | -0.299
[CH3][Hg][Cl] | 1.1
CC(=NC#N)N(C)Cc1ccc(Cl)nc1 | 0.519
CCNc1nc(Cl)nc(NC(C)(C)C#N)n1 | 1.84
C=CC(=O)OCC(CC)(COC(=O)C=C)COC(=O)C=C | 9.7
COC(=O)N(OC)c1ccccc1COc1ccn(-c2ccc(Cl)cc2)n1 | 10.6
CCc1ccc(C(=O)NN(C(=O)c2cc(C)cc(C)c2)C(C)(C)C)cc1 | 1.38
Brc1c(Br)c(Br)c(Br)c(Br)c1Br | 2.18
Cc1cc(C)nc(NC(=O)NS(=O)(=O)c2ccccc2C(=O)OC2COC2)n1 | -0.244
CCCSC(=O)N(CCC)CCC | 1.67
CCCCC(CC)CO[N+](=O)[O-] (configuration not stated) | 2.43
CCc1cnc(C2=NC(C)(C(C)C)C(=O)N2)c(C(=O)O)c1 (configuration not stated) | -2.09
O=c1[nH]c2ccccc2c(=O)o1 | 0.82
CCC/C(=N\OCC)C1=C(O)CC(CC(C)SCC)CC1=O (configuration not stated) | 1.24
CCOc1nc(F)cc2nc(S(=O)(=O)Nc3c(Cl)cccc3Cl)nn12 | -0.921
CCOP(=S)(OCC)Oc1ccc(S(C)=O)cc1 (configuration not stated) | 14.8
O=C(NC(=O)c1c(F)cccc1F)Nc1cc(Cl)c(OC(F)(F)C(F)F)c(Cl)c1 | 0.0082
CC(C)N(C(=O)CCl)c1ccccc1 | -1.87
CO/N=C(/C(=O)OC)c1ccccc1COc1ccccc1C | 13.1
